These measurements were taken from PubChem BioAssay (NCI).

# Test system: IGROV1 ovarian
# EXPERIMENT_NOTES: NCI-60 one-dose screen, 48 h
# RUN_CONDITIONS: 10 µM unless noted
# Method: Growth inhibition of the IGROV1 human tumor cell line is measured as a screen for anti-cancer activity. Cells are grown in 96 well plates and exposed to the test compound for 48 hours. Compounds are tested at a single concentration, which is 10^-5 M for most compounds. The reported endpoint is percent growth (GI% or GIPRCNT), where numbers from 0 - 100% represent growth inhibition, and numbers from -100% - 0 represent cell death. For example, a value of 40 represents 60% growth inhibition. […]
About 83,000 compounds went through this panel and 20% of them were active in at least one assay; those are over-represented in the sample as a whole. Calls of active or inactive are those of the source. Rule for the calls: active = growth percent below 10; inactive = the rest.
API: response.call in active, inactive

Worked examples follow.
NC(N)=N/N=C/c1ccc(Br)cc1 | inactive
N=C(N)c1ccc(-c2ccc(/C=C/c3ccccc3)s2)cc1 | active
COc1ccc(Cn2cnc3cc(C(=O)Nc4cccc5ccccc45)ccc32)c(OC)c1 | inactive
CC(C)n1nc(C#Cc2cccc(NC(=O)c3cccc(C(F)(F)F)c3)c2)c2c(N)ncnc21 | active
CCNCCNc1cc(C2CCCC2)c(C#N)c2nc3ccccc3n12 | inactive
COc1cc2c(O)n(CCCn3ccnc3)c3c4cnc5cccc(c(=O)c3c2cc1OC)c54 | inactive

Exercise: Please share the test call associated with "CC(=[N-])N1CCC[C@@H](Nc2c3ccccc3nc3ccccc23)C1.[Cl][Pt].[NH-]CCC[NH-]" .
Key: inactive

Exercise: Please share the test call associated with "CS(=O)(=O)c1ccc(-c2nc3cc(Cl)ccc3n2CC(=O)NO)cc1" .
Key: inactive

Exercise: Please share the test call associated with COc1ccc(-n2sc(=O)n(Cc3ccc(COC(=O)C(C)c4ccc(CC(C)C)cc4)cc3)c2=O)cc1 (centres undefined) .
Key: inactive

Exercise: Please share the test call associated with "CCN(CC)c1ccc(Nc2ccc(CC(=O)c3ccccc3)cc2)cc1" .
Key: inactive

Exercise: Please share the test call associated with "Cc1cc(Cl)nc(N(CCCNc2ccnc3cc(Cl)ccc23)Cc2ccccn2)n1" .
Key: inactive

Exercise: Please share the test call associated with "Oc1[nH]c2ccccc2c1/C=c1/cc2c(c(-c3ccc(F)cc3)n1)=Nc1ccccc1-2" .
Key: active

Exercise: Please share the test call associated with "CCc1c(C(=O)N[C@@H]2c3cc(Cl)ccc3CC[C@@H]2O)[nH]c(C)c1C(C)=O" .
Key: inactive

Exercise: Please share the test call associated with "O=c1[nH]c(NCc2nnnn2-c2ccc(Br)cc2)nc2sc3c(c12)CCCC3" .
Key: inactive

Exercise: Please share the test call associated with "COc1ccc2cc(-c3ccc(C(=O)NN)c(C)n3)ccc2c1" .
Key: inactive

###

# Test system: MCF7 breast
# EXPERIMENT_NOTES: NCI-60 one-dose screen, 48 h (100 = growth as untreated, 0 = no growth, -100 = all killed)
# RUN_CONDITIONS: 10 µM unless noted
The panel holds about 83,000 compounds, 20% with a hit somewhere; the sample as a whole holds those more often.
For each of the compounds below, state its growth.
Answers are plain numbers, in %.

Give growth for each listed item.
1. COc1cc2oc3cc(C)oc(=O)c3c2cc1OC
2. O=C(NCCOCCOCCOCCNC(=O)c1cc2c(o1)C(=O)c1ccccc1C2=O)NC12CC3CC(CC(C3)C1)C2
3. CN1C(=O)CCC(N2C(=O)c3cccc(NCCOCCOCCNC(=O)c4cc5c(o4)C(=O)c4ccccc4C5=O)c3C2=O)C1=O (stereo not drawn)
4. O=C1CSC(c2ccc(O)cc2)N1c1nnc(Cn2cnnc2)o1 (stereo not drawn)
5. C=C1C(=O)O[C@H]2[C@H]1CC/C(COC(=O)NCc1ccc(Cn3c(=O)sn(CCCCl)c3=O)cc1)=C\CC[C@@]1(C)O[C@@H]21
6. Fc1ccc(Nc2nc(Nc3ccc(-c4nc5ccccc5[nH]4)cc3)c3cn[nH]c3n2)cc1
7. C=CC(=O)Nc1cccc(C)c1Nc1cc(-c2cccnc2Cc2c(C)c(OC)cc(OC)c2C)ncn1
8. O=c1oc2ccc(Cl)cc2cc1-c1cs/c(=N/N=C\c2ccc(Cl)cc2)n1/N=C/c1ccc(Cl)cc1

Key:
1: 98; 2: -63.3; 3: -65; 4: 84; 5: 5.59; 6: 4.38; 7: 8.59; 8: 95.7

Give growth for each listed item.
1. CCCCOc1nc2ccc(Cl)cc2cc1/C=C/C(=O)/C=C1/CC(c2cc3cc(Cl)ccc3nc2OCCCC)Nc2ccccc2N1 (stereo not drawn)
2. Cn1cc(Nc2nccc(-c3ccc(N4CCCC4)c(C#N)c3)n2)cn1
3. O=C1NC(=S)S/C1=C\N1N=C(c2ccc(Cl)cc2)CC1c1ccc(F)cc1 (stereo not drawn)

Key:
74.2
27.3
71.9

Give growth for each listed item.
1. CN(C)c1ccc(-c2cc(-c3ccc(Nc4nc(Nc5ccccc5)nc(Nc5ccc(Cl)cc5)n4)cc3)nc(N)n2)cc1
2. CCN(CC)CC(O)CNc1c2ccc(Cl)cc2nc2ccc(OC)cc12 (stereo not drawn)

Key:
1. 19.1
2. -0.467

Give growth for each listed item.
1. CCOc1ccc2nc(-c3cccc(OCC(=O)NC(C)C)c3)nc(Nc3ccc(-c4cn[nH]c4)cc3)c2c1
2. C[C@]12CCC(=O)C[C@H]1CC[C@@H]1[C@@H]2CC[C@@]2(C)[C@H]1CC[C@]2(O)C(=O)CO
3. CC(C)n1nc(C#Cc2cccc(NC(=O)c3cccc(C(F)(F)F)c3)c2)c2c(N)ncnc21

Key:
-16.8
91.1
14.4

Give growth for each listed item.
1. CN1CCN(CCCOc2ccc3nc(Nc4cc(Cl)cc(Cl)c4)ccc3c2)CC1
2. COc1ccc2c(c1)/C(=C\c1sc(=S)[nH]c1O)C(C(=O)O)=N2

Key:
1. -89.2
2. 97.7
